Sourced from patent US11001838B2

- Test system: E. coli DH1
- assay_explanation: Isopentenol production in E. coli via IPP-bypass MVA pathway (GC-FID)
- Format: cell-based, Escherichia coli
- stated_conditions: 48 hr
measured_property: 48 hr Titer (isopentenol)

INSERT INTO assay_data (molecule, result) VALUES
  ('Saccharomyces cerevisiae diphosphomevalonate decarboxylase (PMDsc, SEQ ID NO: 1) variant Y19H (Saccharomyces cerevisiae S288C; Y19H) (protein, His tag; made in house; host or cells: E. coli Rosetta (DE3)) MTVYTASVTAPVNIATLKHWGKRDTKLNLPTNSSISVTLSQDDLRTLTSAATAPEFERDTLWLNGEPHSIDNERTQNCLRDLRQLRKEMESKDASLPTLSQWKLHIVSENNFPTAAGLASSAAGFAALVSAIAKLYQLPQSTSEISRIARKGSGSACRSLFGGYVAWEMGKAEDGHDSMAVQIADSSDWPQMKACVLVVSDIKKDVSSTQGMQLTVATSELFKERIEHVVPKRFEVMRKAIVEKDFATFAKETMMDSNSFHATCLDSFPPIFYMNDTSKRIISWCHTINQFYGETIVAYTFDAGPNAVLYYLAENESKLFAFIYKLFGSVPGWDKKFTTEQLEAFNHQFESSNFTARELDLELQKDVARVILTQVGSGPQETNESLIDAKTGLPKE', '388 (9) mg/L');
